# method: compounds altering viability of human ES cells (AID 493140);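 note: cells exposed to compounds for four days before counting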
# details: human embryonic stem cell survival screen; hits give high values
experimental readout: survival
Give your answer as a number; write no unit.

Completed entries (count: 6):
[
  {
    "compound": "COc1cc(OC)c2c(c1Cl)O[C@]1(C2=O)C(OC)CC(=O)C[C@H]1C (stereo not given in full)",
    "survival": 13.2
  },
  {
    "compound": "CS(=O)(=O)c1ccc(-c2nc(-c3ccc(F)cc3)c(-c3ccncc3)[nH]2)cc1",
    "survival": 113
  },
  {
    "compound": "O[C@@H]1[C@@H](O)C=C2CCN3Cc4cc5c(cc4[C@H]1C23)OCO5 (stereo not given in full)",
    "survival": 0.583
  },
  {
    "compound": "CCCCC[C@H](O)/C=C/C=C\\C=C\\[C@@H](O)C/C=C\\CCCC(=O)O",
    "survival": 135
  },
  {
    "compound": "Cc1cc(C(=O)NNCc2ccccc2)no1",
    "survival": 3.33
  },
  {
    "compound": "COc1ccc([C@@H]2CC(=O)c3c(O)cc(O[C@@H]4OC(CO[C@@H]5OC(C)[C@H](O)[C@H](O)C5O)[C@@H](O)[C@@H](O)C4O)cc3O2)cc1O (stereo not given in full)",
    "survival": 9.92
  }
]

Return survival (reported value) for this compound: COc1cc([C@@H]2c3cc4c(cc3[C@@H](O[C@@H]3O[C@@H]5CO[C@@H](C)O[C@H]5[C@H](O)[C@H]3O)C3COC(=O)[C@@H]32)OCO4)cc(OC)c1O (stereo not given in full)
0.25

Give reported survival value for CC(=O)N(CC(C)C(=O)O)c1c(I)cc(I)c(N)c1I (stereo not given)
3.33

Quote survival reported for CCCCC/C=C\C[C@@H](O)/C=C/C=C\C/C=C\CCCC(=O)O please.
89.3

Give the value of survival reported for the following: CCCCC/C=C\C[C@@H](O)/C=C/C=C/C=C/[C@@H](O)CCCC(=O)O
77.1

Provide one value: measured survival of Nc1c2ccccc2nc2c(O)cccc12
5.5

Specify reported survival for the compound shown: CNC(=C[N+](=O)[O-])NCCSCc1csc(CN(C)C)n1
4.67

Answer with the recorded survival of CC(C)C[C@H](NC(=O)[C@H](CCC(=O)O)NC(=O)CNC(=O)c1ccc(/C=C/C(=O)O)cc1)C(N)=O only.
88.2

---

# method: viability loss with induced miR-34 in A549 – imaging, A549 dox-inducible miR-34, nuclei and caspase counts, primary screen (AID 1347080); note: test concentration not given here
# details: A549 miR-34 inducible, Hoechst nuclei count, 48 h; hits give low values; cell number ratio, induced over uninduced
*1 amine or outer side, *2 acyl side, *3 side chain or, on linkers, in order; H or OH if unused. Where a SMILES comes first, the peptide text is derived from it. Bridges are numbered along the chain shown (N, C = ends). [ ]: non-standard residue; d: D form. The star is where a group is joined. ξ: configuration not given here. pTerphenylCO(4''-OnC5H11) = CCCCCOc1ccc(-c2ccc(-c3ccc(C(=O)*)cc3)cc2)cc1; ξOrn(4,5-diOH) = O=C(C(CC(O)C(O)N[*:3])N[*:1])[*:2]; ξhTyr(βξ-OH,γξ-OH) = NC(C(=O)O)C(O)C(O)c1ccc(O)cc1; ξPro(3ξ-OH,4ξ-Me) = CC1CNC(C(=O)O)C1O; Hyp = O=C(O)[CH]1C[CH](O)CN1; Cbz = O=C(OCc1ccccc1)*; CH2F = FC*
Hi! Could you tag entries with fold change below 0.9 as 1.0, and those at or above as 0.0? Much appreciated.

Study these solved cases before continuing.
[
  {
    "compound": "NO",
    "label value": 0.0
  },
  {
    "compound": "CCOC(=O)NCCCC(=O)NCCc1ccccc1",
    "label value": 0.0
  },
  {
    "compound": "O=c1ccn2c(n1)OC1C(O)C(CO)OC12 (stereo not drawn)",
    "label value": 1.0
  },
  {
    "compound": "OC(COc1cccc2ncccc12)CN1CCN(C2c3ccccc3C3C(c4ccccc42)C3(F)F)CC1 (stereo not drawn)",
    "label value": 0.0
  },
  {
    "compound": "CC12C=CC(=O)C=C1CCC1C2=CCC2(C)C1CC[C@@H]2C(=O)CN1CCN(c2cc(N3CCCC3)nc(N3CCCC3)n2)CC1 (stereo partly drawn)",
    "label value": 0.0
  }
]

Here's an entry: COC(=O)CC(NC(=O)C(C)NC(=O)C(NC(=O)OCc1ccccc1)C(C)C)C(=O)CF (stereo not drawn) (Cbz-Val-Ala-Asp(OMe)-CH2F; configuration not given here) . Is its fold change below 0.9?
0.0

Consider N#Cc1cc([N+](=O)[O-])c2sc(C(N)=O)[n+]([O-])c2c1 . Does its fold change lie strictly below 0.9?
0.0

Find out if reported fold change for CCCCCOc1ccc(-c2ccc(-c3ccc(C(=O)NC4CC(O)C(O)NC(=O)C5C(O)C(C)CN5C(=O)C(C(C)O)NC(=O)C(C(O)C(O)c5ccc(O)cc5)NC(=O)C5CC(O)CN5C(=O)C(C(C)O)NC4=O)cc3)cc2)cc1 (stereo not drawn) ({pTerphenylCO(4''-OnC5H11)}-[ξOrn(4,5-diOH)]T[Hyp][ξhTyr(βξ-OH,γξ-OH)]T[ξPro(3ξ-OH,4ξ-Me)]; lactam 1-C; configuration not given here) is less than 0.9
0.0

Problem: For the compound CC(=O)[C@H]1CCC2C3CC=C4C[C@@H](OS(=O)(=O)O)CC[C@]4(C)C3CC[C@@]21C (stereo partly drawn) , is fold change under 0.9?
0.0

Check if fold change falls below 0.9 for O=C(Nc1ccc2[nH]ncc2c1)C1CCC1 .
0.0

Strictly below 0.9 in fold change? CCN1CCN(Cc2ccc(-c3cc4c(NC(C)c5ccccc5)ncnc4[nH]3)cc2)CC1 (stereo not drawn)
0.0

Given OC1(c2ccc(Cl)cc2)CCN(Cc2c[nH]c3ccccc23)CC1 , is recorded fold change strictly lower than 0.9?
0.0

Does the reported fold change of CNc1ncnc2c1ncn2[C@@H]1O[C@H](CO)[C@@H](O)[C@H]1O stay below 0.9?
1.0
